# system under test: T1, rGLP‐2 receptor (rat, UniProt Q9Z0W0 1-550)
# T1 construct: rat glucagon-like peptide-2 receptor, pcDNA3.1(+) plasmid from ThermoFisher; also called rat GLP‐2 receptor; source: COS-7, transiently transfected (pcDNA3.1(+)), on whole cells
# T1 sequence (looked up): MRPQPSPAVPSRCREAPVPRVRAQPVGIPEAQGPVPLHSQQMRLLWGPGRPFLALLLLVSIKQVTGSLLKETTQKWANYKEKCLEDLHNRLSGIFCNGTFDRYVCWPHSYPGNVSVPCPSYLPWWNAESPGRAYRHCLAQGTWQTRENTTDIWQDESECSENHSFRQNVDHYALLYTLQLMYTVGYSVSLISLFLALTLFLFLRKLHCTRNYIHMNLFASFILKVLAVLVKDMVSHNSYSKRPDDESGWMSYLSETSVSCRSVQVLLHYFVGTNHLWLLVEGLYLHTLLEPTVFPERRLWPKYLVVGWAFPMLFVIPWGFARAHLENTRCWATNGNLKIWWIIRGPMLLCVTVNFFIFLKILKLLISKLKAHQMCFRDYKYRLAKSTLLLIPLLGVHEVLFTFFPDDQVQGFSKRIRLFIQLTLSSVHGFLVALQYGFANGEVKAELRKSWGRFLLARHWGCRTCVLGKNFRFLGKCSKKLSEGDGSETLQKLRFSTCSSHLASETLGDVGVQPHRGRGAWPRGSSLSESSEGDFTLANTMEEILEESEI
# test context: one partner purified
pKi: −log10 of the molar value.

{"binder": "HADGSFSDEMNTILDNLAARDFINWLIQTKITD [hGLP‐2(1–33)]", "pKi": 8.19}

Cited source for all entries: paper PMC9303331
